Please go through the items and note down their solubility (mole fraction).
- COND: in water, 323.15 K
// response body must contain only the number

Query: Recorded solubility (mole fraction) for `O=S(=O)([O-])c1ccc2ccc(S(=O)(=O)[O-])cc2c1.[Na+].[Na+]` , please?
Result: 0.0473

Query: Recorded solubility (mole fraction) for `O=S(=O)([O-])c1ccc2cc(S(=O)(=O)[O-])ccc2c1.[Na+].[Na+]` , please?
Result: 0.00611

###

- COND: in water, 308.15 K
Please go through the items and note down their solubility (mole fraction).
// response body must contain only the number

Query: Recorded solubility (mole fraction) for `O=S(=O)([O-])c1ccc2ccc(S(=O)(=O)[O-])cc2c1.[Na+].[Na+]` , please?
Result: 0.0268

Query: Recorded solubility (mole fraction) for `O=S(=O)([O-])c1ccc2cc(S(=O)(=O)[O-])ccc2c1.[Na+].[Na+]` , please?
Result: 0.00478

Sourced from BigSolDB 2.1
